These measurements were taken from patent US10513521B2.

TEST DETAILS: Cell-based assay, TGFb1 (Cell IC50)
Quick reference for pIC50 among some molecules
Keep in mind that pIC50 stands for -log10 of concentration in molar terms.

Entry CC(C)(CN1CCCCC1)Oc1ccc(-c2cnc3c(-c4cccc(S(N)(=O)=O)c4)cnn3c2)cc1 [Compound 96] , pIC50 reported as 6.04

response.value for C[C@@H]1CNC[C@H](C)N1c1ccc(-c2cnc3c(-c4ccc(N)c(S(N)(=O)=O)c4)cnn3c2)cc1 [Compound 85] (field: pIC50) = 5.25

get_value(item= CC(C)(O)c1cccc(-c2cnn3cc(-c4ccc(CCN5CCCCC5)cc4)cnc23)c1 [Compound 99] , readout=pIC50) returns 4.34

// pIC50 value for c1ccc(-c2cnn3cc(-c4ccc(CCN5CCCCC5)cc4)cnc23)cc1 [Compound 88] : 7.24

Value of measured pIC50 for the entry C[C@@H]1CNC[C@H](C)N1c1ccc(-c2cnc3c(-c4ccc(CO)c5ccccc45)cnn3c2)cc1 [Compound 22] : 6.61

The recorded pIC50 for entry NC(=O)c1ccc(-c2cnn3cc(-c4ccc(N5C[C@@H]6C[C@H]5CN6)cc4)cnc23)c2ccccc12 [Compound 11] equals 6.19

# pIC50 of CS(=O)(=O)c1cccc(-c2cnn3cc(-c4ccc(C5CCNCC5)cc4)cnc23)c1 [Compound 94] = 5.36

Record summary for CNC(=O)c1cccc2c(-c3cnn4cc(-c5ccc(N6CCNCC6)cc5)cnc34)cccc12 [Compound 7] : reported pIC50 = 5.53

Further cases:
Record NS(=O)(=O)c1cccc(-c2cnn3cc(-c4ccc(CCN5CCCCC5)cc4)cnc23)c1 [Compound 75] , field pIC50: 4.87

// pIC50 value for C[S+](=O)([O-])c1cccc(-c2cnn3cc(-c4ccc(OC5(CN6CCCCC6)COC5)cc4)cnc23)c1 [Compound 93] : 4.00

Lookup result for NC(=O)c1cccc2c(-c3cnn4cc(-c5ccc(N6C[C@@H]7C[C@H]6CN7)cc5)cnc34)cccc12 [Compound 12] ; measured pIC50: 5.91

Looking up N=C(N)c1ccc(-c2cnn3cc(-c4ccc(N5CCNCC5)cc4)cnc23)c2ccccc12 [Compound 16] , I see its pIC50 listed as 4.87
